- target.entity: benzodiazepine receptor
- method: Benzodiazepine-receptor binding assay ([3H]-flunitrazepam displacement, ox cerebral cortex synaptosomal preparation)
- stated.conditions: [3H]-flunitrazepam 1 nM, pH 7.4
property: IC50 (nM)
Return type: number; implicit unit nM.

molecule C/C1=C\CC(C)(C)/C=C/C[C@@]2(C)OC3=C(O)C(=O)[C@H]4CO[C@H]([C@@H]34)[C@@H]2CC1 [Compound D] , IC50 observed: 10

molecule C/C1=C\CC(C)(C)/C=C/C[C@@]2(C)Oc3c(O)c(O)cc4c3[C@@H](OC4)[C@@H]2CC1 [Compound E] , IC50 observed: 500

molecule C/C1=C\CC(C)(C)/C=C/C[C@@]2(C)Oc3c4c(cc(O)c(=O)c3O)CO[C@H]4[C@@H]2CC1 [Compound C] , IC50 observed: 20000

molecule C/C1=C\CC(C)(C)/C=C/C[C@@]2(C)OC3=C4C(=CC(=O)C3=O)CO[C@H]4[C@@H]2CC1 [Compound F] , IC50 observed: 3000

molecule C/C1=C\CC(C)(C)/C=C/C[C@@]2(C)OC3=C(O)C(=O)[C@H]4CO[C@H]([C@@H]34)[C@@H]2CC1 [Compound A] , IC50 observed: 40

molecule C/C1=C\CC(C)(C)/C=C/C[C@@]2(C)Oc3c4c(c(O)c(O)c(=O)c3O)CO[C@H]4[C@@H]2CC1 [Compound B] , IC50 observed: 5000
